test: modulators of HCV replicon luciferase signal, primary screen, HCV replication inhibitor project, Huh7 cells, luciferase reporter (AID 1109); details: 48 h, higher = more signal;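 note: huh7 hepatoma cells harbouring a luciferase neomycin HCV replicon reporter; luciferase luminescence as measure of HCV replicon replication; test concentration not given here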
We use -2 as the dividing line for z-score: on or above the line is satisfied, below is not satisfied.

| Molecule | Answer label |
| --- | --- |
| CC(C)(C)OC(=O)CC[C@]1(C(N)=O)N=C(c2ccc(OCCCO)cc2)O[C@H]1c1ccccc1CN=[N+]=[N-] | satisfied |
| O=C1O[C@H](c2ccccc2)[C@H](c2ccccc2)N2[C@H]1[C@@H](C(=O)NC[C@H](O)c1ccccc1)[C@]1(C(=O)Nc3ccc(C#CCCO)cc31)[C@H]2c1ccccc1OCCO | satisfied |
| C=C(COC)C(=O)CC[C@@H](OC(=O)c1cccnc1)c1cccc(OCCO)c1 | satisfied |
| COCCOC(=O)N1C(=O)[C@@]2(c3cc(C#CCC(C(=O)OC)C(=O)OC)ccc31)[C@H](C(=O)N1CCc3cc(OC)c(OC)cc3C1)[C@H]1C(=O)O[C@H](c3ccccc3)[C@H](c3ccccc3)N1[C@@H]2c1ccc(O)cc1 | satisfied |
| CN(C)C(=O)[C@]1(Cc2ccccc2CN=[N+]=[N-])N=C(c2ccc(OCCCO)cc2)O[C@@H]1c1ccccc1N=[N+]=[N-] | satisfied |
| NC(=O)N1C(=O)C2C(C1=O)C1C=C(CCCO)C2C(c2ccc(CN3CCCC3)cc2)N1Cc1cccc(OC(F)(F)F)c1 (centres undefined) | not satisfied |
| CCCCC(O)C1C=CC2C(=O)N(C)C(=O)C2N1Nc1ccccc1 (centres undefined) | satisfied |
| COC(=O)C1=CC(CCCO)=CC(c2ccc(CN3CCCC3)cc2)N(Cc2sc3ccccc3c2Cl)C=C1C(=O)OC (centres undefined) | satisfied |
| CO[C@H]1O[C@H](CO)[C@@H](OC(=O)Nc2ccccc2)[C@@H]2OC(=O)[C@H](Cc3ccccc3)C/C=C/C[C@@H](Cc3ccccc3)C(=O)O[C@@H]12 | not satisfied |
| COC(=O)[C@@]1(Cc2ccc(OC)cc2)[C@@H]2[C@@H](CC(=O)[C@H]2CC(=O)C(=O)N2CCCC2)CN1C(=O)c1ccccc1 | satisfied |
| C=C(/C(=C/C[C@@H](OC(C)=O)c1ccccc1OCCO)c1cc(C(=O)OC)ccc1OC)C(C)C | satisfied |
| O=C1OCCC=C[C@H]2OC34C=CCN(CCN5CCOCC5)C(=O)[C@H]3N(CCCO)C(=O)[C@@H]4C12 (some centres undefined) | satisfied |
| [N-]=[N+]=NCc1ccccc1C[C@]1(C(=O)NCc2ccccc2)N=C(c2ccc(OCCCO)cc2)O[C@H]1c1ccccc1CN=[N+]=[N-] | not satisfied |
| COCCOC(=O)N1C(=O)[C@@]2(c3cc(C#CCC(C(=O)OC)C(=O)OC)ccc31)[C@H](c1ccc(OCCO)cc1)N1[C@H](c3ccccc3)[C@H](c3ccccc3)OC(=O)[C@H]1[C@@H]2C(=O)N1CCCCCCC1 | satisfied |
